All figures here come from the supplement of paper PMC10567573.

# assay-notes: protein stability index of a GFP-peptide fusion (GPS, HEK-293T) (PSI 1-6); higher = more stable;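 also: 24-mer peptide tiles fused after GFP, lentivirally expressed, FACS-sorted into six equal bins by GFP/DsRed ratio, decoded by Illumina sequencing, PSI is the read-weighted mean bin number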
# conditions-used: treatment: DMSO; c terminus: a fixed tail appended
measured-attribute: protein stability index
Numbers only.

Some entries whose results are on file:
• NYASIIRRDCMWSGFSARERLERA [MYCL] = 2.78
• GVHVRRTDKVGTEAAFHPIEEYMV [FUT8] = 3.36
• PGPPSAPPPPPKEGHQEGLVELPA [SCNN1D] = 5.46
• YSDGADDTFAAYTREQLYQAIFHA [MCOLN1] = 2.54
• FLKQGDSADETTAHKTEEENSDSD [CMTM3] = 5.63
• QDSPGPREAVSQLRELCRLWLRPE [ZNF24] = 3.11

Consider the additional sequence presented here.
IN: Query: protein stability index; subject: KPLYPDDYVHISSKPCDLHCTTVD [ADAMTSL2]
OUT: 4.29
